testProtocol: Octanol-buffer partition coefficient, log D at pH 7.4 by shake-flask method
Assay type: physicochemical
parameterMeasured: logD

COc1ccc(-c2nc(-c3ccccc3)c[nH]2)cc1; 3.62
FC(F)(F)c1cccc(-c2c[nH]c(-c3ccccc3)n2)c1; 4.72
Clc1ccc(-c2c[nH]c(-c3ccccc3)n2)cc1; 4.53
FC(F)(F)c1ccc(-c2c[nH]c(-c3ccccc3)n2)cc1; 4.78
O=[N+]([O-])c1ccc(-c2c[nH]c(-c3ccccc3)n2)cc1; 3.95
FC(F)(F)c1ccc(-c2nc(-c3ccccc3)c[nH]2)cc1; 4.9
O=[N+]([O-])c1cccc(-c2c[nH]c(-c3ccccc3)n2)c1; 3.9
c1ccc(-c2c[nH]c(-c3ccccc3)n2)cc1; 3.72
COc1ccc(-c2c[nH]c(-c3ccccc3)n2)cc1; 3.66
Clc1cccc(-c2nc(-c3ccccc3)c[nH]2)c1; 4.54
FC(F)(F)c1cccc(-c2nc(-c3ccccc3)c[nH]2)c1; 4.54
COc1cccc(-c2nc(-c3ccccc3)c[nH]2)c1; 3.84
COc1cccc(-c2c[nH]c(-c3ccccc3)n2)c1; 3.74
Clc1cccc(-c2c[nH]c(-c3ccccc3)n2)c1; 4.76
O=[N+]([O-])c1cccc(-c2nc(-c3ccccc3)c[nH]2)c1; 3.89
Clc1ccc(-c2nc(-c3ccccc3)c[nH]2)cc1; 4.27
O=[N+]([O-])c1ccc(-c2nc(-c3ccccc3)c[nH]2)cc1; 4.06

FYI, the data here is from ChEMBL document CHEMBL1136877.
